- System name: Nav1.7 (or SCN9A) channel; HEK cells stably transfected with hSCN9A (Homo sapiens)
- Construct: expressed in transfected cells
- Sequence (Q15858 whole entry): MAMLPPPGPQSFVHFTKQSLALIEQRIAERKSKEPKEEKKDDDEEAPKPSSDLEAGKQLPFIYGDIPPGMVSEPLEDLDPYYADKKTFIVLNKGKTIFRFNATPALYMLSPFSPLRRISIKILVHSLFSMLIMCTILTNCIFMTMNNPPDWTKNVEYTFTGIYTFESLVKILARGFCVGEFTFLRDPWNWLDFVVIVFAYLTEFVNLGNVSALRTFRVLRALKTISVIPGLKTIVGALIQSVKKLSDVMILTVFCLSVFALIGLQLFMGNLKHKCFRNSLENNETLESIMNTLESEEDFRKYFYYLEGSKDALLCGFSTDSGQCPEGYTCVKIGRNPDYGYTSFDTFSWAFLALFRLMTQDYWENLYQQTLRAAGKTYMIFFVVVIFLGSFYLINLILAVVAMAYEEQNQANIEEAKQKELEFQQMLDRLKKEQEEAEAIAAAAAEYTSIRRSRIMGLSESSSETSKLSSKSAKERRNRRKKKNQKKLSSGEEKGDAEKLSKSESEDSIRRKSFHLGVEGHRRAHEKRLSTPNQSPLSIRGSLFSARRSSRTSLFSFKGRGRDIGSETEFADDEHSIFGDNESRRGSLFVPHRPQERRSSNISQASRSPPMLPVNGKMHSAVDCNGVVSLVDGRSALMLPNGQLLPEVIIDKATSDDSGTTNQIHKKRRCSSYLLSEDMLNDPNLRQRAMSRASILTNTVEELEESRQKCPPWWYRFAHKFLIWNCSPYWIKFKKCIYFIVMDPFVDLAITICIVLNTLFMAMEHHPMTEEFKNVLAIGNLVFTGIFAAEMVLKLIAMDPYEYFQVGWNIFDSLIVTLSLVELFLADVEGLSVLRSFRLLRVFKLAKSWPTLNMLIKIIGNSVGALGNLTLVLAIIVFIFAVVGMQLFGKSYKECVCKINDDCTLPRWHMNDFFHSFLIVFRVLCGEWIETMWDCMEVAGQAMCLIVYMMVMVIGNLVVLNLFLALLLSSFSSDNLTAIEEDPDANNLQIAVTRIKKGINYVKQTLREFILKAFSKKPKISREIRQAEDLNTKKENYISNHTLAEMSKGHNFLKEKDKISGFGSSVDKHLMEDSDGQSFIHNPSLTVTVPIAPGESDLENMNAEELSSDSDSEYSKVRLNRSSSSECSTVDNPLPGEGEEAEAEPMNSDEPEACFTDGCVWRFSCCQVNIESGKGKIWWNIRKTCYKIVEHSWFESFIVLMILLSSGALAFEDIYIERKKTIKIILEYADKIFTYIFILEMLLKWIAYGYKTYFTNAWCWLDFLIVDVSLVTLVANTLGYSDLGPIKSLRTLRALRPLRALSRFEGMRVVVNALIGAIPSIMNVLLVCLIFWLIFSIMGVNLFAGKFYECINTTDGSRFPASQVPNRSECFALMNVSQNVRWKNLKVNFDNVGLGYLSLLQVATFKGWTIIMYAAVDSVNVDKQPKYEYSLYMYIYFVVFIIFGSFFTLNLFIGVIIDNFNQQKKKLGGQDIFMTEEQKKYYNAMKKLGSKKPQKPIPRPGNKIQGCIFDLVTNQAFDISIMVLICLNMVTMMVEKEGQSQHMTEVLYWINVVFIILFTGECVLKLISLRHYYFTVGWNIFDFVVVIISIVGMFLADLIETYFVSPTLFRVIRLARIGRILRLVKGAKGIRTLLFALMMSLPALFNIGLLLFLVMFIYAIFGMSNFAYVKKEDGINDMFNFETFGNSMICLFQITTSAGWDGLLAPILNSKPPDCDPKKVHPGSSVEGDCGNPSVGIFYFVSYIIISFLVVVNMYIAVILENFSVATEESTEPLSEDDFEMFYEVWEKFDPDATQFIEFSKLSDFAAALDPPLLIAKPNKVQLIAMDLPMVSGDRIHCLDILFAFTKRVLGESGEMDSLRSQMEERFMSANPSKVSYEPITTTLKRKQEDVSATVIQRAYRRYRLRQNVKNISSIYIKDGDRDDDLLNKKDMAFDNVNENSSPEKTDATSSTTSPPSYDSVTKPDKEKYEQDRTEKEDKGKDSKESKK
- Experiment summary: Nav1.7 block, PatchXpress 7000 automated whole-cell voltage clamp, estimated IC50 (EIC50)
- Assay type: cell-based
- Condition set: estimated IC50; hSCN9A HEK cells, PatchXpress platform; Examples 283-814
For each of the compounds below, state its IC50.

Past entries and their recorded results:
CC(C)Oc1cc(-c2cc(F)ccc2Oc2ccc(S(=O)(=O)Nc3nccs3)cc2C#N)n(C)n1    >1 µM
N#Cc1cc(S(=O)(=O)Nc2nccs2)ccc1Oc1ccc(N2CCCC2=O)cc1    >1 µM
N#Cc1cc(S(=O)(=O)Nc2nccs2)ccc1Oc1ccc(N2CCNC2=O)cc1    >1 µM
Cn1cc(-c2ccc(Oc3ccc(S(=O)(=O)Nc4nccs4)cc3C#N)cc2)c(N)n1    >1 µM
Cn1ncnc1-c1cc(Cl)ccc1Oc1ccc(S(=O)(=O)Nc2ncc(F)s2)cc1C#N    >0.30 µM

Kindly give each listed record's IC50.
1. Cn1nccc1-c1cccc(Oc2ccc(S(=O)(=O)Nc3nccs3)cc2C#N)c1
2. Cn1cnnc1-c1cc(Cl)ccc1Oc1ccc(S(=O)(=O)Nc2nccs2)cc1F
3. N#Cc1cc(S(=O)(=O)Nc2ncns2)ccc1Oc1ccc(-n2cc(COC(=O)C(F)(F)F)cn2)cc1
4. N#Cc1cc(S(=O)(=O)Nc2nccs2)ccc1Oc1ccc(-n2cc(Cl)cn2)c(C(=O)O)c1

## Output
1. >1 µM
2. >1 µM
3. >1 µM
4. >1 µM
